Assay: Caco-2 Papp determination
Details: human, Caco-2, pH 7.4

compound smiles | units text | Papp A→B at 2 h, 1 μM
CC1=NC2(CCN(c3c(Cl)cncc3-c3ccc4c(c3)CS(=O)(=O)N4C)CC2)C(=O)N1 | ×10⁻⁶ cm/s | 19.8
Cn1cc(-c2ccc(-c3cncc(Cl)c3N3CCC4(CC3)CNC(=O)O4)cc2)cn1 | ×10⁻⁶ cm/s | 30.6
Cn1cc(-c2ccc(-c3cncc(C(F)(F)F)c3N3CCC4(CC3)CNC(=O)O4)cc2)cn1 | ×10⁻⁶ cm/s | 47.4
O=C1NCCC12CCN(c1c(Cl)cncc1-c1ccc(-c3cnn(CCO)c3)cc1)CC2 | ×10⁻⁶ cm/s | 22.7
CN1c2ccc(-c3cnc(N)c(F)c3N3CCC4(CC3)CNC(=O)O4)cc2CS1(=O)=O | ×10⁻⁶ cm/s | 4
Nc1n[nH]c2cc(-c3cncc(Cl)c3N3CCC4(CCNC4=O)CC3)ccc12 | ×10⁻⁶ cm/s | 0.03
CN1c2ccc(-c3cncc(Cl)c3N3CCC4(CC3)CNC(=O)O4)cc2CS1(=O)=O | ×10⁻⁶ cm/s | 16.6
CC1=NNC(=O)C12CCN(c1c(Cl)cncc1-c1ccc3c(c1)CS(=O)(=O)N3C)CC2 | ×10⁻⁶ cm/s | 40
CN1c2ccc(-c3cncc(Cl)c3N3CCC4(CCNC4=O)CC3)cc2CS1(=O)=O | ×10⁻⁶ cm/s | 29
Cn1cc(-c2ccc(-c3cnc(N)c(C(F)(F)F)c3N3CCC4(CCNC4=O)CC3)cc2)cn1 | ×10⁻⁶ cm/s | 20.7
CN1c2ccc(-c3cnc(N)c(F)c3N3CCC4(CCNC4=O)CC3)cc2CS1(=O)=O | ×10⁻⁶ cm/s | 23.9
CN1c2ccc(-c3cncc(Cl)c3N3CCC4(CC3)NC(=O)NC4=O)cc2CS1(=O)=O | ×10⁻⁶ cm/s | 3.3
Cn1cc(-c2ccc(-c3cnc(N)c(Cl)c3N3CCC4(CC3)NC(=O)NC4=O)cc2)cn1 | ×10⁻⁶ cm/s | 9.6
CN1c2cc(-c3cncc(Cl)c3N3CCC4(CCNC4=O)CC3)ccc2CS1(=O)=O | ×10⁻⁶ cm/s | 33.8
CC(C)(O)Cn1cc(-c2ccc(-c3cnc(N)c(Cl)c3N3CCC4(CCNC4=O)CC3)cc2)cn1 | ×10⁻⁶ cm/s | 25.4
CN1c2ccc(-c3cnc(N)c(Cl)c3N3CCC4(CCNC4=O)CC3)cc2CS1(=O)=O | ×10⁻⁶ cm/s | 19.3

###

Experiment: Caco-2 Papp determination
Conditions: human, Caco-2, pH 7.4
Listing of entries alongside the reported efflux ratio at 2 h, 1 μM.

compound smiles | efflux ratio at 2 h, 1 μM
CN1c2cc(-c3cncc(Cl)c3N3CCC4(CCNC4=O)CC3)ccc2CS1(=O)=O | 11
CC1=NNC(=O)C12CCN(c1c(Cl)cncc1-c1ccc3c(c1)CS(=O)(=O)N3C)CC2 | 4.9
Cn1cc(-c2ccc(-c3cncc(Cl)c3N3CCC4(CC3)CNC(=O)O4)cc2)cn1 | 2.4
O=C1NCCC12CCN(c1c(Cl)cncc1-c1ccc(-c3cnn(CCO)c3)cc1)CC2 | 19.5
CN1c2ccc(-c3cncc(F)c3N3CCC4(CC3)CNC(=O)O4)cc2CS1(=O)=O | 6.5
CN1c2ccc(-c3cncc(Cl)c3N3CCC4(CCNC4=O)CC3)cc2CS1(=O)=O | 3.3
CC(C)(O)Cn1cc(-c2ccc(-c3cncc(Cl)c3N3CCC4(CCNC4=O)CC3)cc2)cn1 | 26.1
COCCN1CCCC12CCN(c1c(Cl)cncc1-c1ccc3c(c1)CS(=O)(=O)N3C)CC2 | 1.7

###

Experiment: in vivo
Settings: male, rat, iv, 0.2 mg/kg
assay metric: clearance (L/h/kg)

compound smiles | assay metric | units text | numeric value
Cn1ncc2cc(-c3cnc(N)c(Cl)c3N3CCC4(CCNC4=O)CC3)ccc21 | clearance | L/h/kg | 1.49

###

Assay: in vivo
Settings: NCr athymic, mouse, po, 30 mg/kg, Free Plasma conc.
assay metric: concentration at 2 h (nM)

compound smiles | numeric value
Cn1ncc2cc(-c3cnc(N)c(Cl)c3N3CCC4(CCNC4=O)CC3)ccc21 | 240

###

Assay: in vivo
Conditions: NCr athymic, mouse, po, 30 mg/kg, Free tumor conc.
assay metric: concentration at 1 h (nM)

compound | numeric value
Cn1ncc2cc(-c3cnc(N)c(Cl)c3N3CCC4(CCNC4=O)CC3)ccc21 [Compound 109] | 171

###

Assay: Thermodynamic solubility determination
Assay type: physicochemical
Details: phosphate buffer, pH 7.4, TFA salt, pH 7.4, 37 °C; read-out: Solubility Therm.
Outcome label depends on solubility at 24 h relative to 50 µg/mL: at/above gives Condition met, below gives Condition not met.

compound smiles | label value
Cn1cc(-c2ccc(-c3cnc(N)c(Cl)c3N3CCC4(CC3)CNC(=O)O4)cc2)cn1 | Condition not met
Cn1cc(-c2ccc(-c3cncc(Cl)c3N3CCC4(CC3)NC(=O)CNC4=O)cc2)cn1 | Condition not met
Cn1cc(-c2ccc(-c3cnc(N)c(Cl)c3N3CCC4(CC3)NC(=O)NC4=O)cc2)cn1 | Condition not met
Cn1cc(-c2ccc(-c3cncc(Cl)c3N3CCC4(CC3)NC(=O)NC4=O)cc2)cn1 | Condition not met
Cn1cc(-c2ccc(-c3cncc(C(F)(F)F)c3N3CCC4(CC3)CNC(=O)O4)cc2)cn1 | Condition not met
CC1=NC2(CCN(c3c(Cl)cncc3-c3ccc4c(c3)CS(=O)(=O)N4C)CC2)C(=O)N1 | Condition met
O=C1NCCC12CCN(c1c(Cl)cncc1-c1ccc3c(c1)CS(=O)(=O)N3)CC2 | Condition met
CN1c2ccc(-c3cncc(Cl)c3N3CCC4(CC3)CNC(=O)O4)cc2CS1(=O)=O | Condition met

###

Assay: Caco-2 Papp determination
Conditions: human, Caco-2, pH 7.4
In this section, each of the compounds is paired with its reported efflux ratio at 2 h, 1 μM.

compound smiles | efflux ratio at 2 h, 1 μM
CN1c2ccc(-c3cncc(F)c3N3CCC4(CCNC4=O)CC3)cc2CS1(=O)=O | 3
CN1c2ccc(-c3cnc(N)c(F)c3N3CCC4(CCNC4=O)CC3)cc2CS1(=O)=O | 29.5
CN1c2ccc(-c3cnc(N)c(Cl)c3N3CCC4(CCNC4=O)CC3)cc2CS1(=O)=O | 5.8
Cn1cc(-c2ccc(-c3cnc(N)c(Cl)c3N3CCC4(CCNC4=O)CC3)cc2)cn1 | 4.9
CN1c2ccc(-c3cnc(N)c(F)c3N3CCC4(CC3)CNC(=O)O4)cc2CS1(=O)=O | 81
CN(C)CCn1cc(-c2ccc(-c3cncc(Cl)c3N3CCC4(CCNC4=O)CC3)cc2)cn1 | 12.4
CC(C)(O)Cn1cc(-c2ccc(-c3cnc(N)c(Cl)c3N3CCC4(CCNC4=O)CC3)cc2)cn1 | 42.7
CN1c2ccc(-c3cncc(Cl)c3N3CCC4(CC3)NC(=O)NC4=O)cc2CS1(=O)=O | 126
O=C1NCCC12CCN(c1c(Cl)cncc1-c1ccc(-c3cnn(CCN4CCCC4)c3)cc1)CC2 | 5.3

###

Assay: in vivo
Conditions: NCr athymic, mouse, po, 30 mg/kg, Total Plasma conc.

compound smiles | units text | concentration at 1 h
Cn1ncc2cc(-c3cnc(N)c(Cl)c3N3CCC4(CCNC4=O)CC3)ccc21 | µM | 14.9

###

Assay: In vivo mouse PK
Details: female, NMRI, plasma, po, 0.5 mg/kg
Use 9% as the dividing line for bioavailability, with the line itself on the 1.0 side and lower values as 0.0.

compound smiles | label value
Cn1cc(-c2ccc(-c3cnc(N)c(Cl)c3N3CCC4(CC3)CNC(=O)O4)cc2)cn1 | 1.0
Cn1cc(-c2ccc(-c3cncc(Cl)c3N3CCC4(CC3)NCNC4=O)cc2)cn1 | 1.0
Nc1n[nH]c2cc(-c3cncc(Cl)c3N3CCC4(CCNC4=O)CC3)ccc12 | 0.0
Cc1nc(-c2ccc(-c3cncc(Cl)c3N3CCC4(CCNC4=O)CC3)cc2)cn1C | 1.0
CN1c2ccc(-c3cncc(F)c3N3CCC4(CCNC4=O)CC3)cc2CS1(=O)=O | 0.0
CN1c2ccc(-c3cncc(F)c3N3CCC4(CC3)CNC(=O)O4)cc2CS1(=O)=O | 1.0
Cn1cc(-c2ccc(-c3cncc(Cl)c3N3CCC4(CC3)NC(=O)NC4=O)cc2)cn1 | 1.0
Cn1cc(-c2ccc(-c3cnc(N)c(C(F)(F)F)c3N3CCC4(CC3)CNC(=O)O4)cc2)cn1 | 1.0
Cn1cc(-c2ccc(-c3cnc(N)c(Cl)c3N3CCC4(CCNC4=O)CC3)cc2)cn1 | 1.0
Cn1cc(-c2ccc(-c3cncc(C(F)(F)F)c3N3CCC4(CC3)CNC(=O)O4)cc2)cn1 | 1.0
CN1c2ccc(-c3cnc(N)c(F)c3N3CCC4(CCNC4=O)CC3)cc2CS1(=O)=O | 1.0
CC(C)(O)Cn1cc(-c2ccc(-c3cnc(N)c(Cl)c3N3CCC4(CCNC4=O)CC3)cc2)cn1 | 0.0
O=C1NCCC12CCN(c1c(Cl)cncc1-c1ccc3c(c1)CS(=O)(=O)N3)CC2 | 1.0
Cn1cc(-c2ccc(-c3cncc(Cl)c3N3CCC4(CC3)NC(=O)CNC4=O)cc2)cn1 | 0.0
O=C1NCCC12CCN(c1c(Cl)cncc1-c1ccc(-c3cnn(CCO)c3)cc1)CC2 | 0.0

Provenance of the data: paper PMC5362750
